Would you kindly list selectivity ratio for each of these molecules?
test: Selectivity index, ratio of CC50 for African green monkey Vero cells to EC50 for Chikungunya virus 899 infected in African green monkey Vero cells; assay type: toxicity; details: read-out: Ratio CC50/EC50
Numbers only.

SMI	OBSERVED
CC(=O)O[C@H]1[C@@H](OC(C)=O)C(C)(C)/C=C/[C@H](C)C(=O)[C@@]2(O)C[C@@](C)(OC(C)=O)[C@H](OC(C)=O)[C@@H]2[C@H]2OC(=O)CC[C@@]2(OC(=O)C(C)C)[C@@H]1OC(=O)C(C)C	2.4

Attention now shifts to the item below.
# lookup: selectivity ratio of "C=C1[C@H](OC(=O)C(C)C)[C@@H](OC(C)=O)[C@@H](OC(C)=O)C(C)(C)/C=C/[C@H](C)C(=O)[C@@]2(O)C[C@@](C)(OC(C)=O)[C@H](OC(=O)COC(=O)c3ccccc3)[C@@H]2[C@H]1OC(C)=O"
3.2
